test: Solubility of dye to organic solvent; type: physicochemical; details: cyclohexanone, 50° C.; mass % of the dye to the mass of the entire solution
quantityName: Solubility to organic solvent: Cyclohexanone (%< mass %)

[[record]]
compound = "CCCCCCCCCC(CCCCCCC)C(=O)Nc1cc2c(cc1C1=C([O-])C(=c3cc4c(cc3NC(=O)C(CCCCCCC)CCCCCCCCC)=[N+](C)C(C)C4(C)C)C1=O)C(C)(C)C(C)N2C (centres unmarked)"
unitabbrev = "%< mass %"
measurement = 10

[[record]]
compound = "CCCCC(CC)C(=O)Nc1cc2c(cc1C1=C([O-])C(=c3cc4c(cc3NC(=O)C(CC)CCCC)=[N+](CC)C(C)C4(C)C)C1=O)C(C)(C)C(C)N2CC (centres unmarked)"
unitabbrev = "%< mass %"
measurement = 10

[[record]]
compound = "CCCCC(CC)C(=O)Nc1cc2c(cc1C1=C([O-])C(=c3cc4c(cc3NC(=O)C(CC)CCCC)=[N+](CCC)C(C)C4(C)C)C1=O)C(C)(C)C(C)N2CCC (centres unmarked)"
unitabbrev = "%< mass %"
measurement = 10

[[record]]
compound = "CCCC(C)C(=O)Nc1cc2c(cc1C1=C([O-])C(=c3cc4c(cc3NC(=O)C(C)CCC)=[N+](C)C(C)C4(C)C)C1=O)C(C)(C)C(C)N2C (centres unmarked)"
unitabbrev = "%< mass %"
measurement = 10

[[record]]
compound = "CCCCC(CC)C(=O)Nc1cc2c(cc1C1=C([O-])C(=c3cc4c(cc3NC(=O)C(CC)CCCC)=[N+](C)C(C)C4(C)C)C1=O)C(C)(C)C(C)N2C (centres unmarked)"
unitabbrev = "%< mass %"
measurement = 10

[[record]]
compound = "CCCCC(CC)C(=O)Nc1cc2c(cc1C1=C([O-])C(=c3cc4c(cc3NC(=O)C(CC)CCCC)=[N+](C(C)C)C(C)C4(C)C)C1=O)C(C)(C)C(C)N2C(C)C (centres unmarked)"
unitabbrev = "%< mass %"
measurement = 10


Entry source: patent US10495796B2
